# test.target: LSD1 (Homo sapiens, UniProt O60341)
# Construct: made in house; host or cells: Escherichia coli Rosetta 2 (pET15b)
# procedure.details: HRP-coupled fluorescence LSD1 demethylation activity and inhibition assay, substrate H3_1-21 K4(Me)
# Type: biochemical
# measurement.context: read-out: % inhibition at 100 μM
Bridge positions count the residues as written; N and C are the ends. Square brackets hold non-standard residues; d marks the D form. Peptide text beside a SMILES is read from it. Cit = NC(=O)NCCC[C@H](N)C(=O)O
experimental.readout: inhibition at 100 µM (%)
Numeric only. Scale: %

| compound | test.target | obs.value |
| --- | --- | --- |
| CSCC[C@@H]1NC(=O)[C@@H](NC(=O)[C@H](CCCNC(=N)N)NC(=O)[C@H](C)N)CCC/C=C\CCC[C@@H](C(=O)N[C@@H](C)C(=O)N[C@@H](CCCNC(=N)N)C(=O)N[C@@H](CCCCN)C(=O)N[C@@H](CO)C(=O)N[C@H](C(N)=O)[C@@H](C)O)NC(=O)[C@H](CCC(N)=O)NC1=O [Peptide 23, ARG^penMQG^penARKST-NH2] | LSD1 (Homo sapiens, UniProt O60341) | 75 |
| CSCC[C@@H]1NC(=O)[C@@H](NC(=O)[C@H](CCCNC(=N)N)NC(=O)[C@H](C)N)Cc2cn(nn2)CCCC[C@@H](C(=O)N[C@@H](C)C(=O)N[C@@H](CCCNC(=N)N)C(=O)N[C@@H](CCCCN)C(=O)N[C@@H](CO)C(=O)N[C@H](C(N)=O)[C@@H](C)O)NC(=O)[C@H](CCC(N)=O)NC1=O [Peptide 36, ARG^prgMQK^azdARKST-NH2] | LSD1 (Homo sapiens, UniProt O60341) | 70 |
| CSCC[C@@H]1NC(=O)[C@@H](NC(=O)[C@H](CCCNC(=N)N)NC(=O)[C@H](C)N)CCC(=O)NCCCC[C@@H](C(=O)N[C@@H](C)C(=O)N[C@@H](CCCNC(=N)N)C(=O)N[C@@H](CCCCN)C(=O)N[C@@H](CO)C(=O)N[C@H](C(N)=O)[C@@H](C)O)NC(=O)[C@H](CCC(N)=O)NC1=O [Peptide 28] | LSD1 (Homo sapiens, UniProt O60341) | 98 |

Ask: What inhibition at 100 µM value was documented for this compound, CSCC[C@@H]1NC(=O)[C@@H](NC(=O)[C@H](CCCNC(=N)N)NC(=O)[C@H](C)N)C/C=C\C[C@@H](C(=O)N[C@@H](C)C(=O)N[C@@H](CCCNC(=N)N)C(=O)N[C@@H](CCCCN)C(=O)N[C@@H](CO)C(=O)N[C@H](C(N)=O)[C@@H](C)O)NC(=O)[C@H](CCC(N)=O)NC1=O [Peptide 21, ARG^alyMQG^alyARKST-NH2] ?
Result: 95

Ask: // repeat for C=CC[C@H](NC(=O)[C@H](CCCNC(=N)N)NC(=O)[C@@H](N)CC=C)C(=O)N[C@@H](CCSC)C(=O)N[C@@H](CCC(N)=O)C(=O)N[C@H](C(=O)N[C@@H](C)C(=O)N[C@@H](CCCNC(=N)N)C(=O)N[C@@H](CCCCN)C(=O)N[C@@H](CO)C(=O)N[C@H](C(N)=O)[C@@H](C)O)[C@@H](C)O [Peptide 18] and report
Result: 98

Ask: How about this compound: CSCC[C@@H]1NC(=O)[C@@H](NC(=O)[C@H](CCCNC(=N)N)NC(=O)[C@@H]2CCCN2)CCC(=O)NCCCC[C@@H](C(=O)N[C@@H](C)C(=O)N[C@@H](CCCNC(=N)N)C(=O)N[C@@H](CCCCN)C(=O)N[C@@H](CO)C(=O)N[C@H](C(N)=O)[C@@H](C)O)NC(=O)[C@H](CCC(N)=O)NC1=O [Peptide 30] (H-PREMQKARKST-NH2; lactam 3-6)
Result: 75

Ask: And then CSCC[C@@H]1NC(=O)[C@@H](NC(=O)[C@H](CCCNC(N)=O)NC(=O)[C@H](C)N)CCC(=O)NCCCC[C@@H](C(=O)N[C@@H](C)C(=O)N[C@@H](CCCNC(=N)N)C(=O)N[C@@H](CCCCN)C(=O)N[C@@H](CO)C(=O)N[C@H](C(N)=O)[C@@H](C)O)NC(=O)[C@H](CCC(N)=O)NC1=O [Peptide 33] (H-A[Cit]EMQKARKST-NH2; lactam 3-6) , what is it?
Result: 97

* * *

# test.target: LSD1 (Homo sapiens, UniProt O60341)
# Construct: made in house; host or cells: Escherichia coli Rosetta 2 (pET15b)
# procedure.details: HRP-coupled fluorescence LSD1 demethylation activity and inhibition assay, substrate H3_1-21 K4(Me)
# Type: biochemical
# measurement.context: 100 μM; supplement sheet SMILES and Activity; read-out: Inhibition at 100 μM (%)
experimental.readout: inhibition at 100 µM (%)
// return numeric value only (unit: %, not printed)

| molecule | unit.of.measure | obs.value |
| --- | --- | --- |
| CSCC[C@@H]1NC(=O)[C@H](NC(=O)[C@H](CCCNC(=N)N)NC(=O)[C@H](C)N)CCC/C=C\CCC[C@@H](C(=O)N[C@@H](C)C(=O)N[C@@H](CCCNC(=N)N)C(=O)N[C@@H](CCCCN)C(=O)N[C@@H](CO)C(=O)N[C@H](C(N)=O)[C@@H](C)O)NC(=O)[C@H](CCC(N)=O)NC1=O (relative stereo) [Peptide 24, AR*G^penMQG^penARKST-NH2] | % | 95 |
| CSCC[C@@H]1NC(=O)[C@H](NC(=O)[C@H](CCCNC(=N)N)NC(=O)[C@H](C)N)CCCCNC(=O)CC[C@@H](C(=O)N[C@@H](C)C(=O)N[C@@H](CCCNC(=N)N)C(=O)N[C@@H](CCCCN)C(=O)N[C@@H](CO)C(=O)N[C@H](C(N)=O)[C@@H](C)O)NC(=O)[C@H](CCC(N)=O)NC1=O (relative stereo) [Peptide 31] | % | 100 |

Please look at the following molecule next.
Ask: For LSD1 (Homo sapiens, UniProt O60341), provide inhibition at 100 µM of C=CCCC[C@H](NC(=O)[C@H](CCC(N)=O)NC(=O)[C@H](CCSC)NC(=O)[C@H](CCCC=C)NC(=O)[C@H](CCCNC(=N)N)NC(=O)[C@H](C)N)C(=O)N[C@@H](C)C(=O)N[C@@H](CCCNC(=N)N)C(=O)N[C@@H](CCCCN)C(=O)N[C@@H](CO)C(=O)N[C@H](C(N)=O)[C@@H](C)O [Peptide 22, ARG^penMQG^penARKST-NH2] please.
Result: 100

* * *

# test.target: LSD1 (Homo sapiens)
# Construct: made in house; host or cells: Escherichia coli Rosetta 2 (pET15b)
# procedure.details: HRP-coupled fluorescence LSD1 demethylation activity and inhibition assay, substrate H3_1-21 K4(Me)
# Assay type: biochemical
# measurement.context: read-out: % inhibition at 100 μM
Bridge positions count the residues as written; N and C are the ends. Peptide text beside a SMILES is read from it.
experimental.readout: inhibition at 100 µM (%)
API: value field is a number in %; no unit string.

| compound | inhibition at 100 µM [%] |
| --- | --- |
| CSCC[C@@H]1NC(=O)[C@@H](NC(=O)[C@H](CCCNC(=N)N)NC(=O)[C@H](C)N)CCC/C=C\CCC[C@H](C(=O)N[C@@H](C)C(=O)N[C@@H](CCCNC(=N)N)C(=O)N[C@@H](CCCCN)C(=O)N[C@@H](CO)C(=O)N[C@H](C(N)=O)[C@@H](C)O)NC(=O)[C@H](CCC(N)=O)NC1=O [Peptide 25, ARG^penMQ*G^penARKST-NH2] | 95 |
| C=CCCC[C@H](NC(=O)[C@H](CCC(N)=O)NC(=O)[C@H](CCSC)NC(=O)[C@H](CCCC=C)NC(=O)[C@H](CCCNC(=N)N)NC(=O)[C@H](C)N)C(=O)N[C@@H](C)C(=O)N[C@@H](CCCNC(=N)N)C(=O)N[C@@H](CCCCN)C(=O)N[C@@H](CO)C(=O)N[C@H](C(N)=O)[C@@H](C)O [Peptide 22, ARG^penMQG^penARKST-NH2] | 100 |

// moving on: another record for inhibition at 100 µM
Ask: Name the recorded inhibition at 100 µM for CSCC[C@@H]1NC(=O)[C@@H](NC(=O)[C@H](CCCNC(=N)N)NC(=O)[C@@H]2CCCN2)CCCCNC(=O)CC[C@@H](C(=O)N[C@@H](C)C(=O)N[C@@H](CCCNC(=N)N)C(=O)N[C@@H](CCCCN)C(=O)N[C@@H](CO)C(=O)N[C@H](C(N)=O)[C@@H](C)O)NC(=O)[C@H](CCC(N)=O)NC1=O [Peptide 29] (H-PRKMQEARKST-NH2; lactam 3-6) .
Result: 90

These measurements were taken from paper PMC7057333.
